The reader will find reported MFI at 33.3 nM values listed item by item below.
# measurement.target: human CTLA-4 (human) (UniProt P16410)
# Sequence (P16410 36-223): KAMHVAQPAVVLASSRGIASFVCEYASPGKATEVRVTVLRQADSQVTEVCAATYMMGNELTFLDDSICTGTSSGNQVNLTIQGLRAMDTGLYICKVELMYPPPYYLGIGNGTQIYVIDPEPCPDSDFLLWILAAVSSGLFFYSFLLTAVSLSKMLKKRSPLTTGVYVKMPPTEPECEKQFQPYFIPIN
# experimental.protocol: flow cytometry, CHO cells stably expressing CTLA4
quantity.name: MFI at 33.3 nM (MFI)

binder	observed.value
variant CD80 IgV-Fc A26E/M47L/A71G/D90G (Fc fusion) VIHVTKEVKEVATLSCGHNVSVEELEQTRIYWQKEKKMVLTMMSGDLNIWPEYKNRTIFDITNNLSIVILGLRPSDEGTYECVVLKYEKGAFKREHLAEVTLSVKAD	22000
variant CD80 IgV-Fc (inert) H18Y/E35D/M47V/V68L/A71G/D90G (Fc fusion) VIHVTKEVKEVATLSCGYNVSVEELAQTRIYWQKDKKMVLTMMSGDVNIWPEYKNRTIFDITNNLSILILGLRPSDEGTYECVVLKYEKGAFKREHLAEVTLSVKAD	16500
variant CD80 IgV-Fc (inert) H18F/A26P/E35D/M47I/V68M/A71G/D90G (Fc fusion) VIHVTKEVKEVATLSCGFNVSVEELPQTRIYWQKDKKMVLTMMSGDINIWPEYKNRTIFDITNNLSIMILGLRPSDEGTYECVVLKYEKGAFKREHLAEVTLSVKAD	23900
variant CD80 IgV-Fc (inert) H18F/A26D/E35D/D46E/M47T/V68M/A71G/D90G (Fc fusion) VIHVTKEVKEVATLSCGFNVSVEELDQTRIYWQKDKKMVLTMMSGETNIWPEYKNRTIFDITNNLSIMILGLRPSDEGTYECVVLKYEKGAFKREHLAEVTLSVKAD	17200
